# Test system: human CD4+CD45RO+ T cells
# test.summary: Modulation of T cell differentiation by RAR agonists and antagonists
# Format: cell-based
# protocol.conditions: 8 days culture, vs DMSO
measurement.label: proportion of memory T cells (CD62L+CD127+ cells)

Answered cases to consult:
CCCCCCCCc1ccc(-c2ccc(C(=O)O)cc2)cc1 [AC55649]    decreased
O=C(O)c1ccc2cc(-c3ccc(O)c(C45CC6CC(CC(C6)C4)C5)c3)ccc2c1 [CD437]    decreased
CN1c2cc3c(cc2N=C(c2ccc(C(=O)O)cc2)c2ccccc21)C(C)(C)CCC3(C)C [LE135]    increased
CN1c2cc3c(cc2N=C(c2ccc(C(=O)O)cc2)c2ccc4ccccc4c21)C(C)(C)CCC3(C)C [LE540]    increased

Report measured proportion of memory T cells (CD62L+CD127+ cells); entry is CC1(C)CC=C(c2cnc3ccccc3c2)c2cc(C(=O)Nc3ccc(C(=O)O)cc3)ccc21 [BMS195614]
increased
